# target or system: hA2A AR (Homo sapiens)
# Sequence (P29274 whole entry): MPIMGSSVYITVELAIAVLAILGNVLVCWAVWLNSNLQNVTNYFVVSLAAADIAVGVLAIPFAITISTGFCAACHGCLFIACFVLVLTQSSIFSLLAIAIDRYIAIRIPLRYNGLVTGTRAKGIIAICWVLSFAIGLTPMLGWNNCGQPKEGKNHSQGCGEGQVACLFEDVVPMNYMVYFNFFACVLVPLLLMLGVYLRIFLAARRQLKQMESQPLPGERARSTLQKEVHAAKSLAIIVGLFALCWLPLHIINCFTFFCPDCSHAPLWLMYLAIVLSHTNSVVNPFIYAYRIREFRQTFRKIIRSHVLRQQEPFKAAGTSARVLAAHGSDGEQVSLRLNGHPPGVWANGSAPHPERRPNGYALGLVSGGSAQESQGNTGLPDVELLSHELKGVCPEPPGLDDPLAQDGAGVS

{"smiles repr": "Nc1nc(NCCc2ccc(O)c(O)c2)nc2cn(-c3ccccc3)nc12", "Ki / nM": 238}
{"smiles repr": "Nc1nc(NCc2ccccc2)nc2cn(-c3ccccc3)nc12", "Ki / nM": 123}
{"smiles repr": "Nc1nc(Nc2ccccc2)nc2cn(-c3ccccc3)nc12", "Ki / nM": 412}
{"smiles repr": "COc1ccc(CCNc2nc(N)c3nn(-c4ccccc4)cc3n2)cc1OC", "Ki / nM": 189}

* * *

# target or system: hA3 AR (Homo sapiens)
# Construct: expressed in transfected cells; host or cells: CHO cells (membranes)
# Sequence (P0DMS8 whole entry): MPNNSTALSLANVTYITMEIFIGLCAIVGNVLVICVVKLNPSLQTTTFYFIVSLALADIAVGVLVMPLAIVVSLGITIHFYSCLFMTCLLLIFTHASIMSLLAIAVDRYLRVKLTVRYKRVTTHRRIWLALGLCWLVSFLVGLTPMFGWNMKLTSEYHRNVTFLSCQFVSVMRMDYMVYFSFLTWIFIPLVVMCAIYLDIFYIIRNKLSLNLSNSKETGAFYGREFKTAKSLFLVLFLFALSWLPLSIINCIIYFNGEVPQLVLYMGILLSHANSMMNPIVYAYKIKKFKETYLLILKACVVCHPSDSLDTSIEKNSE
# method: [125I]AB-MECA competition binding to hA3 CHO membranes
# run parameters: inhibition at 1 μM, read-out: Binding experiments I% hA3

{"smiles repr": "Nc1nc(N2CCN(Cc3ccccc3)CC2)nc2cn(-c3ccccc3)nc12", "target or system": "hA3 AR (Homo sapiens)", "inhibition / %": 1}
{"smiles repr": "Nc1nc(N2CCN(Cc3ccco3)CC2)nc2cn(-c3ccccc3)nc12", "target or system": "hA3 AR (Homo sapiens)", "inhibition / %": 5}
{"smiles repr": "Nc1nc(N2CCN(c3ccccc3)CC2)nc2cn(-c3ccccc3)nc12", "target or system": "hA3 AR (Homo sapiens)", "inhibition / %": 20}
{"smiles repr": "Nc1nc(N2CCN(C(=O)Cc3ccccc3)CC2)nc2cn(-c3ccccc3)nc12", "target or system": "hA3 AR (Homo sapiens)", "inhibition / %": 1}
{"smiles repr": "CC(C)(C)OC(=O)N1CCN(c2nc(N)c3nn(-c4ccccc4)cc3n2)CC1", "target or system": "hA3 AR (Homo sapiens)", "inhibition / %": 21}
{"smiles repr": "Nc1nc(N2CCN(C(=O)c3ccco3)CC2)nc2cn(-c3ccccc3)nc12", "target or system": "hA3 AR (Homo sapiens)", "inhibition / %": 13}

* * *

Measured Binding experiments I% hA1 by item
# target or system: hA1 AR (Homo sapiens, UniProt P30542)
# Construct: expressed in transfected cells; host or cells: CHO cells (membranes)
# Sequence (P30542 1-326): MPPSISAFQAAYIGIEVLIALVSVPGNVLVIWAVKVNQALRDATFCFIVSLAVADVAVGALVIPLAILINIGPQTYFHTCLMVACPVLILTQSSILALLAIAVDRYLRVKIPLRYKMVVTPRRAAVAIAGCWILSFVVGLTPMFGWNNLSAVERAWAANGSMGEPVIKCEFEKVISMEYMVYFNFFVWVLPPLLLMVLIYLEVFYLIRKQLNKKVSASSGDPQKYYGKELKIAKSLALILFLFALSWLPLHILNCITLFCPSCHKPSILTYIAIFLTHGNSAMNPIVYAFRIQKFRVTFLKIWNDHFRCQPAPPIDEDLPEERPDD
# method: [3H]DPCPX competition binding to hA1 CHO membranes
# run parameters: inhibition at 1 μM

{"smiles repr": "Nc1nc(NCCc2ccc(O)cc2)nc2cn(-c3ccccc3)nc12", "unit abbreviation": "%", "Binding experiments I% hA1": 27}
{"smiles repr": "Cn1cc2nc(Nc3ccccc3)nc(N)c2n1", "unit abbreviation": "%", "Binding experiments I% hA1": 1}
{"smiles repr": "COc1ccc(Nc2nc(N)c3nn(-c4ccccc4)cc3n2)cc1", "unit abbreviation": "%", "Binding experiments I% hA1": 33}
{"smiles repr": "Cn1cc2nc(NCc3ccccc3)nc(N)c2n1", "unit abbreviation": "%", "Binding experiments I% hA1": 9}
{"smiles repr": "CC(C)(C)CC(=O)N1CCN(c2nc(N)c3nn(-c4ccccc4)cc3n2)CC1", "unit abbreviation": "%", "Binding experiments I% hA1": 29}
{"smiles repr": "Nc1nc(Nc2ccc(Cl)cc2Cl)nc2cn(-c3ccccc3)nc12", "unit abbreviation": "%", "Binding experiments I% hA1": 1}
{"smiles repr": "Nc1nc(NCc2ccccc2)nc2cn(Cc3ccccc3)nc12", "unit abbreviation": "%", "Binding experiments I% hA1": 19}
